Source listed as paper PMC4336329.

Measured hERG current change (%, negative = inhibition) at 10uM, listed per entry for reference.
experimental system: human ether-à-go-go-related gene (hERG) potassium channel (human);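 note: peak tail current of the secondary pulse compared with the same well before compound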
experiment description: primary screen, population patch clamp on CHO cells stably expressing hERG; higher = less effect of the substance
Description: Briefly, Chinese hamster ovary (CHO) cells stably expressing the hERG channel were dislodged from tissue culture flasks and dispensed into PPC plates. […] During the recording, background leak currents were estimated by a 100 ms step to -80 mV from an initial holding potential of -70 mV and subtracted from the subsequent current measurement. The campaign was conducted in two phases using slight differences in recording protocol. […]
The campaign covered roughly 310,000 compounds. About 14,000 (4.5%) showed an effect of 50% or more. The effect is printed as a negative number. The entries come from a sample that favours strong results as a whole.
Your answer is read as %, so omit the unit and give the number.

Look over these answered cases.
CCN1CCN(CC(=O)c2ccc(C)cc2)CC1    8.76
COc1ccc(/C=N/Nc2ccc([N+](=O)[O-])cc2)cc1O    10.1
O=C1CSC(c2ccncc2)N1Cc1ccc(F)cc1 (centres unmarked)    1.53
Cc1cccc(-c2noc(-c3ccc4c(c3)OCO4)n2)c1    7.53

Query :: For the molecule O=c1c(-c2nnc(SCc3ccc(Cl)cc3Cl)o2)cccn1Cc1ccccc1 , what hERG current change (%, negative = inhibition) at 10uM is on record?
Result :: -62.5

----------
Some molecules, each annotated with its measured hERG current change (%, negative = inhibition) at 10uM.
experimental system: human ether-à-go-go-related gene (hERG) potassium channel (human, UniProt Q12809);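 note: peak tail current of the secondary pulse compared with the same well before compound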
Sequence (Q12809 whole entry, looked up): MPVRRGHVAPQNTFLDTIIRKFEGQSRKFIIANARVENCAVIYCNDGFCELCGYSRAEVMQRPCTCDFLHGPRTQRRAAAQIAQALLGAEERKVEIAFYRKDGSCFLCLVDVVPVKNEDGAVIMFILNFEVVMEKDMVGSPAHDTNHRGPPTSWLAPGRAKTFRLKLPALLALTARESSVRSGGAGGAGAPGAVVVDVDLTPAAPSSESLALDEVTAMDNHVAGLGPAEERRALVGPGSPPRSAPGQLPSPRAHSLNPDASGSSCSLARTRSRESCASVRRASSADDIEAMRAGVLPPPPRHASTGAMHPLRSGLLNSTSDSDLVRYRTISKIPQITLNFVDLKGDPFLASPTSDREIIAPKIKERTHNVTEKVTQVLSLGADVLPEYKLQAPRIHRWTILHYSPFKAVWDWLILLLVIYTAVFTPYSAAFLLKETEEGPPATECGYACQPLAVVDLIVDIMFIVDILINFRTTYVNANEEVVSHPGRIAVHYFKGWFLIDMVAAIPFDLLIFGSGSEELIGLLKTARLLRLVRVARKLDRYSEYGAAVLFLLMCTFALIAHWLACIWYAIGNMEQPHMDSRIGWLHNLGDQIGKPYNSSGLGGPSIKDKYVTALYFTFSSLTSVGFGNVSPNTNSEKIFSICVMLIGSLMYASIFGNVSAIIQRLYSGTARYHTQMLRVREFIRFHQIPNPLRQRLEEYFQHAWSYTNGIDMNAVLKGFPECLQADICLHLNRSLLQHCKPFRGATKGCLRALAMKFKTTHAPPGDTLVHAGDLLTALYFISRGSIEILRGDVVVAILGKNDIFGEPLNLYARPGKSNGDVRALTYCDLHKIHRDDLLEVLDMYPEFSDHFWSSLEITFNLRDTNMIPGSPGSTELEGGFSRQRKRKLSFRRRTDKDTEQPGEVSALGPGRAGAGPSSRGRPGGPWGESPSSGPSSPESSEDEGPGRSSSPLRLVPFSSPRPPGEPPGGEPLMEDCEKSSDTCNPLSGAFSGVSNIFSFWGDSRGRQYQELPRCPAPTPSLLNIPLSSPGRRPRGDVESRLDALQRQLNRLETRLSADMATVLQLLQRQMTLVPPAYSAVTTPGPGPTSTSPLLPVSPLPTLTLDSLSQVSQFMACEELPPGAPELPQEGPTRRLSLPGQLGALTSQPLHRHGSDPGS
experiment description: primary screen, population patch clamp on CHO cells stably expressing hERG; higher = less effect of the substance
In all, about 310,000 compounds went through this assay and about 14,000 (4.5%) showed an effect of 50% or more. The effect is printed as a negative number. Only a selection was taken, and strong results are over-represented in it overall.
Report only the number, with the unit % understood.

CN(C)c1ccc(C2CC(=O)NC3=C2C(=O)CC(C)(C)C3)cc1 (centres unmarked)    1.9
COc1ccc(CCNC(=S)N2CCN(S(=O)(=O)c3ccc(Cl)cc3)CC2)cc1    22
O=C(CSc1ccc(Cl)cc1)N1CCN(c2c(Cl)cccc2[N+](=O)[O-])CC1    -17.2
CCN(CC)C(=O)CSc1nnc(-c2cc(-c3ccc(Cl)cc3)nc3ccccc23)o1    -3.85

Please examine the following record next.
Query :: Please look up its hERG current change (%, negative = inhibition) at 10uM: Clc1ccc(CN=C2Nc3ccccc3CS2)cc1
Result :: 14.9

----------
Below, each of the compounds is paired with its reported hERG current change (%, negative = inhibition) at 10uM value.
experimental system: human ether-à-go-go-related gene (hERG) potassium channel (human, UniProt Q12809);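 note: peak tail current of the secondary pulse compared with the same well before compound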
experiment description: primary screen, population patch clamp on CHO cells stably expressing hERG; higher = less effect of the substance
Experimental: Briefly, Chinese hamster ovary (CHO) cells stably expressing the hERG channel were dislodged from tissue culture flasks and dispensed into PPC plates. […] During the recording, background leak currents were estimated by a 100 ms step to -80 mV from an initial holding potential of -70 mV and subtracted from the subsequent current measurement. The campaign was conducted in two phases using slight differences in recording protocol. […]
Out of some 310,000 compounds screened, about 14,000 (4.5%) showed an effect of 50% or more. The effect is printed as a negative number. Shown is part of a subset that was picked to be rich in strong results.
Give just the numeric value; % need not be written.

Query :: Recorded hERG current change (%, negative = inhibition) at 10uM for CCc1nc2ccccc2n1Cc1ccc(F)cc1 , please?
Result :: -0.73

Query :: Dear colleague, I am looking for the recorded hERG current change (%, negative = inhibition) at 10uM of the following compound: COc1cc(C(=O)NC2CCCC2)c(Br)c(OC)c1OC
Result :: 7.61

Query :: Would you kindly share the measured hERG current change (%, negative = inhibition) at 10uM for COc1cccc(C(=O)NNS(=O)(=O)c2ccc(F)cc2)c1 ?
Result :: 9.31

Query :: What value of hERG current change (%, negative = inhibition) at 10uM has been reported for the following compound? OC(c1ccc(Cl)cc1)C(O)c1nc2ccccc2[nH]1 (stereo not shown)
Result :: -2.47

Query :: Which hERG current change (%, negative = inhibition) at 10uM value belongs to COc1cccc(-c2cnc(NCc3cc(Cl)ccc3O)n2C)c1.O=C(O)C(=O)O ?
Result :: -24.1

Query :: Which hERG current change (%, negative = inhibition) at 10uM is listed for CC(=O)O[C@H]1CC[C@@]2(C)[C@@H](CC[C@@H]3[C@@H]2CC[C@]2(C)[C@@H](C(C)(C)O)C[C@@H]32)C1 ?
Result :: 9.09

Query :: Can you share its hERG current change (%, negative = inhibition) at 10uM? I mean this compound: O=C(CCc1ccccc1)NNC(=O)Nc1ccccc1
Result :: 1.26

Query :: Give its hERG current change (%, negative = inhibition) at 10uM value. Item: COc1ccc(OC)c(CNc2ncc(-c3cccc([N+](=O)[O-])c3)n2C)c1.O=C(O)C(=O)O
Result :: -54.8

Query :: Field request: hERG current change (%, negative = inhibition) at 10uM | item: COc1ccc(Cl)cc1NC(=O)Nc1cc(C)on1
Result :: 0.43

Query :: So what does the record say about hERG current change (%, negative = inhibition) at 10uM for COc1ccc(CN(C)C(=O)c2ccccc2Sc2ccccc2C#N)c(OC)c1 ?
Result :: 0.887
